Biological target: T1, GmPOPB_S577A (Galerina marginata), H2E7Q8
T1 chain: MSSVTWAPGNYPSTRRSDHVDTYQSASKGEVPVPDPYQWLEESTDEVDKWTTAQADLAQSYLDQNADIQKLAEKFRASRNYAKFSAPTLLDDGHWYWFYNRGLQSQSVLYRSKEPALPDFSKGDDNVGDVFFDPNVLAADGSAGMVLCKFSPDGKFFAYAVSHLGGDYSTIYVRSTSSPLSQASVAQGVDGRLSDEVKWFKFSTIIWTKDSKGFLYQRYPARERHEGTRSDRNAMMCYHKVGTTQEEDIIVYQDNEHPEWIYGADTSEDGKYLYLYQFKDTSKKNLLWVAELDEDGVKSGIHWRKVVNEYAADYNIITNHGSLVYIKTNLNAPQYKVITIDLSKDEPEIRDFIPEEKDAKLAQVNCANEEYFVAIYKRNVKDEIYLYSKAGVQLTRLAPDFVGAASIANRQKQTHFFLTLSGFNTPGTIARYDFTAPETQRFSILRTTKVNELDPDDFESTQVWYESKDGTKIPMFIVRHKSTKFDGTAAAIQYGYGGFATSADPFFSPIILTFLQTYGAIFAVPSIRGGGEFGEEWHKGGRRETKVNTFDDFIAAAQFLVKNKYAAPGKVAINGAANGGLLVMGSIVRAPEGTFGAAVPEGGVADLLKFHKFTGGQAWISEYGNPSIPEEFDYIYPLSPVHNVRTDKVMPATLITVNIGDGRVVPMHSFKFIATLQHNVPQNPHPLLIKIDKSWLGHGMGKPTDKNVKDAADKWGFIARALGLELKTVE
Assay: ITC, peptide titrated into GmPOPB_S577A, 20 C
Measured property: Kd (nM)
Could you give me the number in nM? Just the number is fine.

Look up Kd: MFDTNATRLPIWGIGCNPWTAEHVDQTLASGNDIC (modifications not checked) [35mer substrate (GmAMA1)]
120
